Read-out record for α1B adrenoceptor (Rattus norvegicus, UniProt P15823): Ki
Structures can show the parent of a compound that is named as a salt.
QUANTITY_KIND: Ki (nM)

{"COMPOUND": "CC(C)Oc1ccccc1N1CCN(CCCN2C(=O)C3CCCC(O)C3C2=O)CC1.Cl (stereo not shown) [Compound No. 60, hydrochloride]", "Ki / nM": 142}
{"COMPOUND": "CC(C)Oc1cc([N+](=O)[O-])ccc1N1CCN(CCCN2C(=O)C3CC=CCC3C2=O)CC1 (stereo not shown) [Compound No. 25, hydrochloride]", "Ki / nM": 173}
{"COMPOUND": "COC1=C(OC)CC2C(=O)N(CCCN3CCN(c4ccccc4OC(C)C)CC3)C(=O)C2C1 (stereo not shown) [Compound No. 75, hydrochloride]", "Ki / nM": 71}
{"COMPOUND": "CCOc1ccccc1N1CCN(CCCN2C(=O)C3CC(O)C(Cl)CC3C2=O)CC1.Cl (stereo not shown) [Compound No. 17, hydrochloride]", "Ki / nM": 80}

I = COc1ccccc1N1CCN(CC(O)CN2C(=O)C3CC=CCC3C2=O)CC1.Cl (stereo not shown) [compound 06, hydrochloride]
II = Cl.O=C1C2CC=CCC2C(=O)N1CC(O)CN1CCN(c2ccccc2O)CC1 (stereo not shown) [Compound No. 14, hydrochloride]
Req: Between I and II , which one shows the larger Ki value? Identify your pick by its label.
Resp: II
(II: 504 nM, I: 263 nM)

###

- TARGET: α1D adrenoceptor (aorta) (Rattus norvegicus)
- Construct: Isolated tissues were mounted in organ bath containing Krebs Henseleit buffer; from tissue; host or cells: isolated rat aorta
- Sequence (P23944 whole entry): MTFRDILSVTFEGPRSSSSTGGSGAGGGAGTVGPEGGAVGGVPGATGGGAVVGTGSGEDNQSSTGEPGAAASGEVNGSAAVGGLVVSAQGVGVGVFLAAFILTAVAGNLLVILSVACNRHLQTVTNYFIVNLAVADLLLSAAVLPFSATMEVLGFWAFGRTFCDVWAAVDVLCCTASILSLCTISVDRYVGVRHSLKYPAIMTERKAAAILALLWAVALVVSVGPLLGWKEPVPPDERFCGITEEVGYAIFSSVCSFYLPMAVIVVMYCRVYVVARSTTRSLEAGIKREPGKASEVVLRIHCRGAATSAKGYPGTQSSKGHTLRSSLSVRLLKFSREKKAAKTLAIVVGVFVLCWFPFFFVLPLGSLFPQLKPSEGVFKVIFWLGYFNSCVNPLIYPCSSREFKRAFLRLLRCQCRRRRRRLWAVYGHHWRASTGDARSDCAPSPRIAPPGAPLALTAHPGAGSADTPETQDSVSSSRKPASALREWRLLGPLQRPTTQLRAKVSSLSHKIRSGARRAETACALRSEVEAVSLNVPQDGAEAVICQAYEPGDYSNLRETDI
- ASSAY_COMMENT: In vitro functional assay, isolated aorta, norepinephrine contraction
- Assay type: cell-based
- CONDITIONS_USED: read-out: α Adrenoceptor Subtype (pKB) α1D (converted)
Structures can show the parent of a compound that is named as a salt.
QUANTITY_KIND: Kb (nM)

Solved entries (count: 2):
{"COMPOUND": "CC(C)Oc1ccccc1N1CCN(CC(O)CN2C(=O)C3CC=CCC3C2=O)CC1.Cl (stereo not drawn) [compound 07, hydrochloride]", "TARGET": "α1D adrenoceptor (aorta) (Rattus norvegicus)", "QUANTITY_KIND": "Kb", "NUMERIC_RESULT": 2.29}
{"COMPOUND": "O=C1C2CC3OC3CC2C(=O)N1CC(O)CN1CCN(c2ccccc2OCC(F)(F)F)CC1 (stereo not drawn)", "TARGET": "α1D adrenoceptor (aorta) (Rattus norvegicus)", "QUANTITY_KIND": "Kb", "NUMERIC_RESULT": 19.1}

P = Cl.O=C1CCCC(=O)N1CCCN1CCN(c2ccccc2O)CC1 [compound 01, hydrochloride]
Q = O=C1C2CC=CCC2C(=O)N1CC(O)CN1CCN(c2ccccc2OCC(F)(F)F)CC1 (stereo not drawn) [Compound No. 31, hydrochloride]
Req: Between P and Q , which one shows the larger Kb value? Identify your pick by its label.
Resp: P

A = CC(C)Oc1ccccc1N1CCN(CC(O)CN2C(=O)C3CC4OC4CC3C2=O)CC1 (stereo not drawn)
B = CCOc1ccccc1[N+]1([O-])CC[N+]([O-])(CCCN2C(=O)C3CC=CCC3C2=O)CC1 (stereo not drawn)
Req: Between A and B , which one shows the larger Kb value? Identify your pick by its label.
Resp: B

P = CC(C)Oc1ccccc1N1CC[N+]([O-])(CCCN2C(=O)C3CC=CCC3C2=O)CC1 (stereo not drawn)
Q = CC(C)Oc1ccccc1N1CCN(CCCN2C(=O)C3CC(O)C(O)CC3C2=O)CC1 (stereo not drawn) [Compound No. 13]
Req: Please indicate which entry, P or Q , has the lower recorded Kb value. Identify your pick by its label.
Resp: Q
(Q: 2.29 nM, P: 21.9 nM)

I = CC(C)Oc1ccc(O)cc1N1CCN(CCCN2C(=O)C3CC=CCC3C2=O)CC1.Cl (stereo not drawn) [Compound No. 21, hydrochloride]
II = Cl.O=C1C2CC=CCC2C(=O)N1CCCN1CCN(c2ccccc2OC2CCCC2)CC1 (stereo not drawn) [Compound No. 43, hydrochloride]
III = CC(C)Oc1ccccc1N1CCN(CCCN2C(=O)C3CC(O)C(O)CC3C2=O)CC1 (stereo not drawn) [Compound No. 23]
IV = CC(C)Oc1ccccc1N1CCN(CCCN2C(=O)C3CC(O)C(Cl)CC3C2=O)CC1.Cl (stereo not drawn) [Compound No. 28, hydrochloride]
V = COc1ccccc1N1CCN(CC(O)CN2C(=O)C3CC=CCC3C2=O)CC1.Cl (stereo not drawn) [compound 06, hydrochloride]
Req: Arrange these 5 compounds in increasing order of Kb. Would you mind listing the labels in the order requested?
Resp: II, IV, V, III, I

1 = CC(C)Oc1ccccc1N1CCN(CC(O)CN2C(=O)CCCC2=O)CC1.Cl (stereo not drawn) [Compound No. 29, hydrochloride]
2 = CC(C)Oc1cc([N+](=O)[O-])ccc1N1CCN(CCCN2C(=O)C3CC=CCC3C2=O)CC1 (stereo not drawn) [Compound No. 25, hydrochloride]
Req: Between 1 and 2 , which one shows the larger Kb value? Identify your pick by its label.
Resp: 1
